- experimental.target: T1, human CDH6 on tumor cells (OVCAR3 cells, PA-1 cells) (human, UniProt P55285 54-790)
- T1 sequence: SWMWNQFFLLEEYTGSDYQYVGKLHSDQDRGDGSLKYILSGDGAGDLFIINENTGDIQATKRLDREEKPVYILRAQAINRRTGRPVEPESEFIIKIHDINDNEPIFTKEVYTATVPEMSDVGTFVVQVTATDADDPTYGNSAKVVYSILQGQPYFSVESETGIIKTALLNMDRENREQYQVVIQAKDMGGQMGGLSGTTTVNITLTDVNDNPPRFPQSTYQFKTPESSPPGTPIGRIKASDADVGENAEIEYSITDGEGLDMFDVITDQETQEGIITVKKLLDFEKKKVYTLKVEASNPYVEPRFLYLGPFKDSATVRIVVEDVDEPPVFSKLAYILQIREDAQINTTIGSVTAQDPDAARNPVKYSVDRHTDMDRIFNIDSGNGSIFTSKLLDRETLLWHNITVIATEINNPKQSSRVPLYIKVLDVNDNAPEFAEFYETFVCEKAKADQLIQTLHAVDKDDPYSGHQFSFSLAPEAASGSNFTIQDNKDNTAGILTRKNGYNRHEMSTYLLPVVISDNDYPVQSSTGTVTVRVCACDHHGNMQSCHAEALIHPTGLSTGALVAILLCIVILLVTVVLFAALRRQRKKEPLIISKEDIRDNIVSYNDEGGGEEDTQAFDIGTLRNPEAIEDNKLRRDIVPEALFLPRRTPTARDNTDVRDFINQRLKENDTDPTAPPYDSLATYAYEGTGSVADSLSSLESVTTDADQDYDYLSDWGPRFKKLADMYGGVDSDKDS
- measurement.notes: FACS, OVCAR3 cells, 4° C. arm of endocytosis assay, antibody diluted to 10 µg/mL
reported.property: MFI_4° C. (MFI)
Answers are plain numbers, in MFI.

Please give MFI_4° C., item by item, for the list that follows.
1. CHI-CDH6-8 (antibody, human IgG1, kappa, V domains shown, also called chimeric antibody of murine CDH6-8) VH: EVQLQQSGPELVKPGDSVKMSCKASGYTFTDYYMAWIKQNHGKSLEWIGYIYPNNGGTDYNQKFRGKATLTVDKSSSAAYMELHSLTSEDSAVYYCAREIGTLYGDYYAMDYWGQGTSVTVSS VL: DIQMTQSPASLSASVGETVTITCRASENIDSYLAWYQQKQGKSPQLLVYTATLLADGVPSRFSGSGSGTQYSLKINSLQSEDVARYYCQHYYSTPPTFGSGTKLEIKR
2. CHI-CDH6-4 (antibody, human IgG1, kappa, V domains shown, also called CH1-CDH6-4; chimeric antibody of murine CDH6-4) VH: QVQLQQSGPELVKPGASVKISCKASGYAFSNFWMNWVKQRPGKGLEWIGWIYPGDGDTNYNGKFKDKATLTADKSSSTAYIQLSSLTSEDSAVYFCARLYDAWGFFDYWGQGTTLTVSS VL: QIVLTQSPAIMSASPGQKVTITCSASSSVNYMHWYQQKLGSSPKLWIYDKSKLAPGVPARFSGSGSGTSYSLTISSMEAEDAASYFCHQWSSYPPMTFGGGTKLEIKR
3. CHI-CDH6-12 (antibody, human IgG1, kappa, V domains shown, also called CH1-CDH6-12; chimeric antibody of murine CDH6-12) VH: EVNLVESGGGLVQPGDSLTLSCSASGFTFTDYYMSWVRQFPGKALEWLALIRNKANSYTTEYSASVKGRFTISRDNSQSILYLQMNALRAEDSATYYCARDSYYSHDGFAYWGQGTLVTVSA VL: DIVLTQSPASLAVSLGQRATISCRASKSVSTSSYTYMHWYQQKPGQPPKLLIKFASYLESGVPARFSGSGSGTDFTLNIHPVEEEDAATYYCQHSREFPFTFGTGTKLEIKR

[10100, 9520, 5740]
